tested on: HOP-62 NSCLC; assay: NCI-60 one-dose screen, 48 h (100 = growth as untreated, 0 = no growth, -100 = all killed); settings: 10 µM unless noted
About 83,000 compounds went through this panel and 20% of them were active in at least one assay; those are over-represented in the sample as a whole. Activity calls are given as the source filed them. How the source made its calls: active means growth percent below 10; inactive means the rest.
PARAMETER_MEASURED: growth

>>> assay_result("CC(=O)OC(C)c1cccc(C#N)c1 (stereo unspecified)")
"94.8% (inactive)"
>>> assay_result("CC(c1ccccc1)N1C(=O)CSC1=S (stereo unspecified)")
"59.2% (inactive)"
>>> assay_result("CC(=O)[C@@]1(O)CC[C@H]2[C@@H]3CC[C@@H]4CC(=O)CC[C@]4(C)[C@H]3[C@@H](O)C[C@@]21C")
"74.2% (inactive)"
>>> assay_result("Clc1cccc(Cl)c1CSc1nc2ccccc2n2cccc12")
"101% (inactive)"
>>> assay_result("Cc1cc(=O)n(Nc2ccccc2)c(O)c1C#N")
"86% (inactive)"

q: Fill in the blank: the reported growth of COC1CC(OC(=O)c2ccc([N+](=O)[O-])cc2)C(COC(=O)c2ccc([N+](=O)[O-])cc2)O1 (stereo unspecified) is ____.
a: 118% (inactive)

q: Consider next the compound "CC(=O)O[C@H]1CC[C@]2(C)C3=C(C(=O)C[C@H]2C1(C)C)[C@]1(C)CC[C@H]([C@H](C)CCC(=O)O)[C@@]1(C)CC3=O" in the same way.
a: 95.4% (inactive)

q: Please answer likewise for "CCOC(=O)/C(C)=C\c1ccc(OC)c(OC)c1"
a: 105% (inactive)

q: Queued: "C/C(=N\O)c1ccccn1"
a: 102% (inactive)

q: Would you mind doing "Cc1cccc(C)c1NC(=S)/N=C\c1c(O)[nH]c(=O)[nH]c1=O" as well?
a: 87.7% (inactive)

q: Field entry: "Nc1ncnc(Nc2ccccc2)n1"
a: 119% (inactive)

q: Try "CCNC(=O)Oc1ccc[nH]c1=O" next.
a: 102% (inactive)

q: Again, but for "CCOS(=O)(=O)c1ccc([N+](=O)[O-])cc1"
a: 100% (inactive)

q: What about "O=C1NC(=O)/C(=C\c2ccncc2)N1" ?
a: 94.2% (inactive)

q: Try "Nc1nc(Cl)cc(Cl)n1" next.
a: 85.2% (inactive)

q: Now this one: "CC1(C)OC(=O)CC1=O"
a: 97.9% (inactive)

q: Again, but for "CCCNS(=O)(=O)c1ccc(Cl)cc1"
a: 86.6% (inactive)

q: What would you report for "CCC(=O)Oc1c(C)cc(O)c2ccccc12" ?
a: 79.5% (inactive)

q: Can you check "CCOC(=O)C(=O)CC(=O)c1ccccc1" next?
a: 94.9% (inactive)

q: Can you check "O=C(Nc1c(Cl)cc(Cl)cc1Cl)ON=C1CCCCC1" next?
a: 100% (inactive)

q: Also check "CNc1ccccc1C(N)=O"
a: 95.9% (inactive)

* * *

Consider the following compounds and their measured growth readings.
test system: NCI-H322M lung; assay: NCI-60 one-dose screen, 48 h (100 = growth as untreated, 0 = no growth, -100 = all killed); settings: 10 µM unless noted
About 83,000 compounds went through this panel and 20% of them were active in at least one assay; those are over-represented in the sample as a whole. Calls of active or inactive are those of the source. How the source made its calls: active means growth percent below 10; inactive means the rest.

Take a look at these entries with their results.
>>> assay_result("CCOc1ccncc1[N+](=O)[O-]")
"110% (inactive)"
>>> assay_result("N#Cc1ccc(OC(=O)Nc2cc(Cl)cc(Cl)c2)cc1")
"-3.43% [100 µM] (active)"

q: Could you tell me which growth is on file for C/C=C/C1OCC(CC)C(CCC)O1 (configuration not stated) ?
a: 111% (inactive)

q: Next up: "CC(=O)Nc1ncc(S(=O)(=O)c2ccc([N+](=O)[O-])cc2)s1"
a: 113% (inactive)

q: Ok, now COC1OC(COC(C)=O)C(OC(C)=O)C(OC(C)=O)C1OC(C)=O (configuration not stated)
a: 101% (inactive)

q: Same question, "CC1=CC(=Nc2ccc(N(C)C)cc2)C=C(C)C1=O" this time
a: 95.8% (inactive)

q: How about this compound: "O=C(NC1CCCCC1)c1ccc(Cl)cc1"
a: 98.1% (inactive)

q: Further, for "CSc1cnc2ccccc2n1" ?
a: 94.4% (inactive)

* * *

system: SNB-19 CNS; assay: NCI-60 one-dose screen, 48 h (100 = growth as untreated, 0 = no growth, -100 = all killed); settings: 10 µM unless noted
About 83,000 compounds went through this panel and 20% of them were active in at least one assay; those are over-represented in the sample as a whole.
PARAMETER_MEASURED: growth (%)
The reply should contain only the number, in %.

>>> assay_result("C1C[S+]2CC[S+]1CC2")
103
>>> assay_result("S=C(Sc1ccc(Cl)cc1)Sc1ccc(Cl)cc1")
83.9
>>> assay_result("CC(=O)Nc1ccc(O)c(C)c1")
104
>>> assay_result("CC(C)(C)[Si](C)(C)OCC1OC(n2cnc3c(N)ncnc32)CC1OS(C)(=O)=O (centres undefined)")
108
>>> assay_result("CCOc1ccccc1NC(=O)CCl")
101
>>> assay_result("Cn1c(=O)c2[nH]c(CC(=O)O)nc2n(C)c1=O")
100
>>> assay_result("CCOc1ccc(C(=O)O)cc1")
112
>>> assay_result("COc1cccc(N=CNc2cccc(OC)c2)c1")
103

q: Suppose we examine the compound "CCCCCCCCCCC(=O)CCCCCCCCCC" ; what growth value has been reported?
a: 109

q: Moving on to the next compound: "c1cc(CNCCNCc2ccncc2)ccn1"
a: 104

q: Repeat for the following compound: "Cc1cc(NC(=O)c2ccccc2)c(Cl)cc1N"
a: 93.9

q: Try O=C1NCC2CCCC1C2 (centres undefined) next.
a: 99.6

q: Same again, this time with "NC(=O)NCCO"
a: 104

q: Entry CC1(C)C2CCC1(C)C1(C2)OCCS1 (centres undefined) please
a: 88.8

* * *

test system: HOP-92 NSCLC; experiment: NCI-60 one-dose screen, 48 h (100 = growth as untreated, 0 = no growth, -100 = all killed); conditions: 10 µM unless noted
The panel holds about 83,000 compounds, 20% with a hit somewhere; the sample as a whole holds those more often. Calls of active or inactive are those of the source. The calls were made as follows: active = growth percent below 10; inactive = the rest.
PARAMETER_MEASURED: growth

>>> assay_result("CC1CC2C3CCC4=CC(=O)CCC4(C)C3CCC2(C)C1(O)C(=O)CO (configuration not stated)")
"100% (inactive)"
>>> assay_result("CCOc1ccncc1[N+](=O)[O-]")
"102% (inactive)"
>>> assay_result("O=C(CCCl)OCCOc1ccccc1")
"86.7% (inactive)"
>>> assay_result("c1ccc2[nH]c(Cc3nc4ccccc4[nH]3)nc2c1")
"85% (inactive)"
>>> assay_result("COC(=O)C1=C(C)C(=O)CC1")
"113% (inactive)"

q: Need growth of "O=C(CC(CC(=O)c1ccccc1)c1ccccn1)c1ccccc1" , thanks.
a: 94.7% (inactive)

q: Do the same for C#CC(O)c1ccccc1 (configuration not stated) please
a: 85.9% (inactive)

q: Note, next up: "CC(C)(N)CO[C@H]1C[C@H]2CC[C@@]1(C)C2(C)C"
a: 89.2% (inactive)

q: Record: O=C(O)C1CSC(c2ccccc2)N1 (configuration not stated)
a: 111% (inactive)

q: Input "Nc1cccc2cccc(O)c12"
a: 83.8% (inactive)

q: Next: "Nc1nc2nnc(-c3ccccc3)c(-c3ccccc3)n2n1"
a: 61.4% (inactive)

q: Moving on to the next compound: "O=c1cc(Cl)nc2ccccn12"
a: 94% (inactive)

* * *

Test system: SK-MEL-28 melanoma
Assay: NCI-60 one-dose screen, 48 h (100 = growth as untreated, 0 = no growth, -100 = all killed)
Conditions: 10 µM unless noted
Method: Growth inhibition of the SK-MEL-28 human tumor cell line is measured as a screen for anti-cancer activity. Cells are grown in 96 well plates and exposed to the test compound for 48 hours. Compounds are tested at a single concentration, which is 10^-5 M for most compounds. The reported endpoint is percent growth (GI% or GIPRCNT), where numbers from 0 - 100% represent growth inhibition, and numbers from -100% - 0 represent cell death. For example, a value of 40 represents 60% growth inhibition. […]
This is part of a sample that, as a whole, favours compounds with a hit. Of some 83,000 tested, about 20% had one in any assay.
Recorded growth, one value per entry.
Record the value in %, omitting the unit from your answer.

Sample answers from the record:
>>> assay_result("CC(=O)OCC1CCC(COC(C)=O)CC1 (stereo not drawn)")
102
>>> assay_result("CCNC(=O)OCCc1c2ccccc2nc2ccccc12")
97.7
>>> assay_result("COc1cc(OC)c2cc(C(=O)c3ccc(C#N)cc3)c(=O)oc2c1")
99.5
>>> assay_result("CCCCCC/C=C\\CCCCCCCCCc1cc(O)cc(OC)c1O")
24
>>> assay_result("N#C/C(=C\\c1ccc2c(c1)OCO2)c1ccccc1")
87.7
>>> assay_result("Cc1ccnc(Nc2nc3ccccc3[nH]2)n1")
115

q: What does the record list as growth for OCC(O)COc1ccc(Cl)cc1Cl (stereo not drawn) ?
a: 96.5

q: Next molecule: "C1CCc2onc(-c3noc4c3CCCCC4)c2CC1"
a: 112

q: Then this molecule: "CCOC(=N)CC(=O)Nc1cccc(C)c1Cl"
a: 105

q: Follow-up entry: "CCCNS(=O)(=O)c1ccc(Cl)cc1"
a: 108

q: Would you kindly repeat that for "O=S(=O)(OCCOS(=O)(=O)c1ccccc1)c1ccccc1" ?
a: 112

q: // query: "O=C(Nc1ccc([N+](=O)[O-])cc1)C(=O)Nc1ccc([N+](=O)[O-])cc1"
a: 115

q: What would you report for "C=CCNC(=S)N/C=C(/C(=O)c1ccccc1)c1ccccc1" ?
a: 104
